- assay_target: KRas G12D (Homo sapiens, UniProt P01116, G12D)
- Sequence (P01116 1-169 isoform P01116-2 G12D): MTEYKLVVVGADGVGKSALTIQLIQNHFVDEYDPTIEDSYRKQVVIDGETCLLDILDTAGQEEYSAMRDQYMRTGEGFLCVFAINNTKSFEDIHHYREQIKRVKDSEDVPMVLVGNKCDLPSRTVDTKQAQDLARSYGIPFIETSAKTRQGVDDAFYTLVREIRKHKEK
- assay_overview: biochemical
- measurement_parameters: Binding to KRas (IC50 nM) G12D, TR-FRET displacement, KRas G12D
IC50 values for the compounds below.
property_name: IC50

[[record]]
compound = "CCNc1cc2n(n1)CCCN(c1nc(OC[C@@]34CCCN3C[C@H](F)C4)nc3c1CCN(c1cc(O)cc4ccc(F)c(CC)c14)C3)C2"
result = "< 2 nM"

[[record]]
compound = "CCc1c(F)ccc2cc(O)cc(N3CCc4c(nc(OC[C@@]56CCCN5C[C@H](F)C6)nc4N4CCCn5nc(C(=O)N6C[C@@H]7C[C@H](C6)[C@H](O)C7)cc5C4)C3)c12"
result = "< 2 nM"

[[record]]
compound = "CCc1c(F)ccc2cc(O)cc(N3CCc4c(nc(OC[C@@]56CCCN5C[C@H](F)C6)nc4N4CCCn5nc(C(=O)N6CC7CNC(CO)C7C6)cc5C4)C3)c12 (stereo partly drawn)"
result = "< 2 nM"

